Tested on: MCC-26
assay: qHTS assay to identify novel small-molecules to repurpose for Merkel cell carcinoma treatment (AID 1296009); further: nearly all actives have a fitted effect of over 60% in size
experimentalContext: MCC and control cell lines, CellTiter-Glo viability, 72 h; series mostly up to 46 µM
Records with an inconclusive call do not appear. Calls of active or inactive are those of the source. The call rests on the fitted dose curve; in most records, active means well fitted inhibition curve with a large enough effect; inconclusive means small, poorly fitted or top-dose-only effect; inactive means flat fitted curve, though single readings scatter.
Field 'call' accepts active, inactive

input: What outcome does the record of this test show for CC1(C)OC[C@@H](COC(=O)CCc2ccc(OC[C@@H](O)CNCCNC(=O)N3CCOCC3)cc2)O1 ?
output: inactive

input: Record request — test call for Cc1c(C)n(Cc2ccccc2)c2ccc(C(=O)OCCN(C)C)cc12
output: inactive

input: For this compound, state the assay outcome: NC(CS)C(=O)O (configuration not stated)
output: inactive

input: Answer briefly: the call reported for CN1CCC(=C2c3ccccc3Sc3ccccc32)CC1 in this assay.
output: inactive

###

Test system: CP265
assay: qHTS profiling for inhibitors of Plasmodium falciparum proliferation (AID 504749); further: nearly all actives have a fitted effect of over 60% in size
experimentalContext: P. falciparum in erythrocytes, SYBR Green DNA, 72 h; series mostly up to 28.7 µM
Results filed as inconclusive are left out. The source made the active and inactive calls. Calls follow the shape of the dose curve; as a rule, active = well fitted inhibition curve with a large enough effect; inconclusive = small, poorly fitted or top-dose-only effect; inactive = flat fitted curve, though single readings scatter.
Assign a class; possible classes are label 1 = active, label 0 = inactive

Record excerpt, results attached:
| compound | assignedCategory |
| --- | --- |
| O=C1[C@H]2CCCC[C@H]2C(=O)N1CCCCN1CCN(c2nsc3ccccc23)CC1 | label 0 |
| Cc1cc(O)c(C(C)C)cc1Cl | label 0 |
| CCCn1c(=O)[nH]c(=O)c2[nH]cnc21 | label 0 |

input: Each compound tested received a call. Report the one for CN1CCC(=C2c3ccccc3Sc3ccccc32)CC1 .
output: label 1

input: How did this test come out for CCOC(=O)c1cccc(N)c1 ?
output: label 0

input: Hello, I am checking results. What call was entered for COc1ccc(/C=C/C(=O)c2ccc(OC)cc2OC)cc1 ?
output: label 1

input: Any idea what this test logged for CC(C)(C)CC(C)(C)c1ccc(OCCOCC[N+](C)(C)Cc2ccccc2)cc1 ?
output: label 1

###

assay: Cell Viability - LYMP2-002 (AID 977);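 further: compound exposure lasted 24 h at 37 °C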
experimentalContext: LYMP2-002 lymphoblastoid cell viability, qHTS; series mostly up to 92.2 µM
Records with an inconclusive call do not appear. Activity calls are given as the source filed them. Calls come from the whole dose curve; as a rule, active = well fitted cell-killing curve with a large enough effect; inconclusive = small, poorly fitted or top-dose-only effect; inactive = flat fitted curve, though single readings scatter.
Response enum: active, inactive

Example entries begin here.
| moleculeSmiles | assignedCategory |
| --- | --- |
| COc1cccc2c1C(=O)c1c(O)c3c(c(O)c1C2=O)C[C@@](O)(C(=O)CO)C[C@@H]3O[C@H]1C[C@H](N)[C@H](O)[C@H](C)O1 | active |
| CC/C(=C(/CC)c1ccc(O)cc1)c1ccc(O)cc1 | inactive |
| C=CCc1ccc(O)c(OC)c1 | inactive |
| CN(C)/N=N/c1nc[nH]c1C(N)=O | inactive |
| COC1=CC(=O)C[C@@H](C)[C@]12Oc1c(Cl)c(OC)cc(OC)c1C2=O | inactive |

input: Recorded test call requested for O=c1ccc2ccccc2o1
output: inactive

input: # outcome recorded in this test, key = O=C1OC(c2ccc(O)cc2)(c2ccc(O)cc2)c2ccccc21
output: inactive

input: Field: outcome | Entry: CC(C)(C)CC(C)(C)c1ccc(OCCOCC[N+](C)(C)Cc2ccccc2)cc1
output: active

###

assay: qHTS for Activators of Parkin Expression: LOPAC Validation Assay (FLuc Reporter) (AID 720573;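 further: 0% = DMSO and 100% = positive control compounds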)
experimentalContext: Cell line, PRKN promoter firefly luciferase reporter, vehicle wells = 0; series mostly up to 46.1 µM
Description: Parkin is an E3 ubiquitin ligase localized in the cytosol of cells expressed in many tissues, including brain, skeletal muscle, heart and liver tissues. […] A cell based qHTS in 1536 well format was developed assess modulation of Parkin expression using a neuronal cell line that stably expresses a stably expresses a luminescent coincidence reporter (FLuc and NLuc reporters) behind the Parkin promoter. The LOPAC library is used to validate the assay for quantitative high-throughput screening. […]
Records with an inconclusive call do not appear. Active and inactive are the calls of the source. Calls follow the shape of the dose curve; as a rule, active = well fitted activation curve with a large enough effect; inconclusive = small, poorly fitted or top-dose-only effect; inactive = no such curve, though single readings can be large or run the other way.
recordedMetric: outcome

See these solved cases before continuing.
| compound | outcome |
| --- | --- |
| N[C@@H](Cc1cnc[nH]1)C(=O)O | inactive |
| COc1cc(NS(C)(=O)=O)ccc1Nc1c2ccccc2nc2ccccc12 | inactive |
| C[C@]12CC[C@@H]3c4ccc(O)cc4CC[C@H]3[C@@H]1CC[C@@H]2O | inactive |
| CC1(C)CCC(NC(=O)[C@@H](N)CCC(=O)O)CC1 | inactive |
| C[C@@H]1C(=O)NC2=Nc3cccc(Cl)c3CN21 | inactive |
| CNCCC(Oc1ccccc1C)c1ccccc1 (stereo not given) | inactive |

Here is the next item to consider.
input: What value of measured outcome is listed for COc1cc2c(cc1O)CC[C@@H]1[C@@H]2CC[C@]2(C)[C@@H](O)CC[C@@H]12 ?
output: inactive
